# Test system: ICK
# Measurement Conditions: concentration: 1 μM, replicates: in singlicate; n = 1;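 further: KINOMEscan kinase panel screen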
If the reported %Inh equals or exceeds 10%, assign Criterion met. If not, assign Criterion not met.

Examples with answers:
>>> category_label("CC(=O)c1c(C)c2cnc(Nc3ccn(C)n3)nc2n(C2CCCC2)c1=O")
"Criterion not met"
>>> category_label("Cc1ccc(NC(=O)c2ccc(Cl)cc2)cc1-c1ccc(C(=O)Nc2ccncc2)cc1")
"Criterion not met"
>>> category_label("Fc1ccc(-c2nc3n(c2-c2ccncc2)CCS3)cc1")
"Criterion not met"
>>> category_label("CS(=O)(=O)Cc1ccc(Nc2nccc(-c3c(-c4cccc(NC(=O)C5CCCCC5)c4)nn4ncccc34)n2)cc1")
"Criterion met"
>>> category_label("COC(=O)c1cccc(NC(=O)NC2CCN(c3ccnc(Nc4ccc(OC)cc4)n3)C2)c1 (centres unmarked)")
"Criterion met"
>>> category_label("COc1ccc2cc(-c3nc(-c4ccccc4C(C)C)[nH]c3-c3ccncc3)ccc2c1")
"Criterion met"

Would you kindly look at the next entry?
Tell me whether %Inh is at least 10% here: COC(=O)c1cccc(NC(=O)NC2CCN(c3ccnc(Nc4ccc(F)cc4)n3)C2)c1 (centres unmarked)
Criterion met

----------
# %Inh values compiled below
# Tested on: CDK9
# Measurement Conditions: concentration: 1 μM, replicates: in singlicate; n = 1
I'd appreciate it if you included the unit after the number.

Consider the worked cases shown below.
>>> recorded_value("COc1ccc(Nc2nccc(N3CCC(NC(=O)C(C)c4ccc(Cl)cc4)C3)n2)cc1 (stereo not drawn)")
"0%"
>>> recorded_value("CCCCc1nn2ncccc2c1-c1ccnc(NC2CC2)n1")
"0%"

What value of %Inh has been recorded for this entry: O=C(Nc1n[nH]c2nc(-c3cccs3)c(Br)cc12)C1CC1
0%

What value of %Inh has been recorded for this entry: CN1c2ccc(-c3ccc(C(N)=O)cc3)cc2-c2[nH]ncc2S1(=O)=O
0%

----------
# System: PRKD2
# Measurement Conditions: concentration: 1 μM, replicates: in singlicate; n = 1
# %Inh values compiled below
I only need the number, in %, no unit after it.

Consider the worked cases shown below.
>>> recorded_value("Cl.Cl.Cl.N#Cc1ccc(CCNc2nccc(-c3cccc(CN4CCNCC4)c3)n2)cc1")
13
>>> recorded_value("Cn1cncc1C(=O)NC1CCN(c2ccnc(Nc3ccc(F)cc3)n2)C1 (stereo not drawn)")
0
>>> recorded_value("O=C(Nc1n[nH]c2nc(-c3cccs3)c(Br)cc12)C1CCCC1")
0
>>> recorded_value("CSc1ccc(-c2nc3n(c2-c2ccncc2)CCC3)cc1")
4

Test system PRKD2; read-out %Inh; what value for Cc1ccc(NC(=O)Nc2ccccc2F)cc1-c1ccc(C(=O)Nc2ccncc2)cc1 ?
4

Test system PRKD2; read-out %Inh; what value for c1ccc(-c2ccnc3[nH]ccc23)cc1 ?
0

Test system PRKD2; read-out %Inh; what value for Cc1ccc(-c2nc(Nc3ccncc3)c3ccccc3n2)s1 ?
14

Test system PRKD2; read-out %Inh; what value for Fc1ccc(-c2nn3cccc(F)c3c2-c2ccncc2)cc1 ?
60

Test system PRKD2; read-out %Inh; what value for COC(=O)c1cccc(NC(=O)NC2CCN(c3ccnc(Nc4ccc(F)cc4)n3)C2)c1 (stereo not drawn) ?
1

----------
# Test system: FGFR3
# Measurement Conditions: concentration: 1 μM, replicates: in singlicate; n = 1
Assay Readout: %Inh (%)
I only need the number, in %, no unit after it.

Consider the worked cases shown below.
>>> recorded_value("COc1cc2ncnc(Nc3cccc(Br)c3)c2cc1OC.Cl [GI230329]")
11
>>> recorded_value("O=C(Nc1n[nH]c2nc(-c3cccs3)c(Br)cc12)C1CC1 [SB-735297]")
0
>>> recorded_value("CCCCc1nn2ncccc2c1-c1ccnc(NC2CC2)n1 [GW684374]")
5

What value of %Inh has been recorded for this entry: Cc1cccc2c(-c3ccncn3)c(-c3ccc(F)cc3)nn12 [GW515532]
0

What value of %Inh has been recorded for this entry: Cc1ccc(NC(=O)Nc2ccccc2F)cc1-c1ccc(C(=O)Nc2ccncc2)cc1 [GSK1398477]
23
